experiment: Michaelis-Menten kinetics of voriconazole N-oxidation in human intestine microsomes; assay type: in vitro ADME; conditions: human, human intestine microsomes, pH 7.5; read-out: KM (95% CI)
Metric: Km
Remember to put the unit after the number in your answer.

input: Endpoint output: Km of `C[C@@H](c1ncncc1F)[C@](O)(Cn1cncn1)c1ccc(F)cc1F` . Value?
output: 2.53 µM

* * *

As a worked illustration, we turn to pKi data collected for CYP2C19 (Homo sapiens, UniProt P33261).
Give bare numbers, as −log10 of the molar value.

C[C@@H](c1nc[n+]([O-])cc1F)[C@](O)(Cn1cncn1)c1ccc(F)cc1F [NO, voriconazole N-oxide]    4.23

Now for another entry.
input: Endpoint output: pKi of C[C@@H](c1ncnc(O)c1F)[C@](O)(Cn1cncn1)c1ccc(F)cc1F [OH–VRC, hydroxyvoriconazole] . Value?
output: 4.94

* * *

For each of the compounds below, state its IC50.
target: CYP2C19 (Homo sapiens); test: IC50 and IC50 shift on CYP2C19 marker reaction (S-mephenytoin 4-hydroxylation) in HLM; assay type: in vitro ADME; design: tissue Corning Inc; host or cells: pooled human liver microsomes (150 donors); settings: 30 min pre-incubation in the absence of NADPH, read-out: IC50 NADPH (−) (95% Confidence Interval)
Sequence (P33261 whole entry): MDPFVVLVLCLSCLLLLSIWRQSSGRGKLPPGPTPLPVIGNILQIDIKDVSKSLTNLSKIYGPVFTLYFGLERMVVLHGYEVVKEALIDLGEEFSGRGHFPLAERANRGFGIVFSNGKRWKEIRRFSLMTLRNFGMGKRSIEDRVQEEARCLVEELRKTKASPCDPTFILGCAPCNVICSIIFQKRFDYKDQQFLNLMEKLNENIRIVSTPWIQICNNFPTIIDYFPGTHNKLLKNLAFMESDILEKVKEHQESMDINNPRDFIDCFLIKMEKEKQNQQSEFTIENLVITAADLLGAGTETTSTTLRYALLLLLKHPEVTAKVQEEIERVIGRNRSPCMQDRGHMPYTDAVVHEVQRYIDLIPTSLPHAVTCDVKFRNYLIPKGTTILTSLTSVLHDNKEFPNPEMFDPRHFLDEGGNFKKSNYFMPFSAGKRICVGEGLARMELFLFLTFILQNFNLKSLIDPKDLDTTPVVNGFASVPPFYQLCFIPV

C[C@@H](c1ncnc(O)c1F)[C@](O)(Cn1cncn1)c1ccc(F)cc1F [OH–VRC, hydroxyvoriconazole]    > 34.2 µM

Now for another entry.
input: Endpoint output: IC50 of C[C@@H](c1nc[n+]([O-])cc1F)[C@](O)(Cn1cncn1)c1ccc(F)cc1F [NO, voriconazole N-oxide] . Value?
output: > 34.2 µM

* * *

As a worked illustration, we turn to pKi data collected for CYP3A4 (Homo sapiens, UniProt P08684).
Give bare numbers, as −log10 of the molar value.

C[C@@H](c1ncnc(O)c1F)[C@](O)(Cn1cncn1)c1ccc(F)cc1F [OH–VRC, hydroxyvoriconazole]    5.60

Now for another entry.
input: Endpoint output: pKi of C[C@@H](c1nc[n+]([O-])cc1F)[C@](O)(Cn1cncn1)c1ccc(F)cc1F [NO, voriconazole N-oxide] . Value?
output: 5.28

* * *

target: CYP3A4 (Homo sapiens, UniProt P08684); test: IC50 and IC50 shift on CYP3A4 marker reaction (midazolam 1-hydroxylation) in HLM; assay type: in vitro ADME; set-up: tissue Corning Inc; host or cells: pooled human liver microsomes (150 donors); details: 30 min pre-incubation in the absence of NADPH, read-out: IC50 NADPH (−) (95% Confidence Interval)
Sequence (P08684 2-503 limits assumed): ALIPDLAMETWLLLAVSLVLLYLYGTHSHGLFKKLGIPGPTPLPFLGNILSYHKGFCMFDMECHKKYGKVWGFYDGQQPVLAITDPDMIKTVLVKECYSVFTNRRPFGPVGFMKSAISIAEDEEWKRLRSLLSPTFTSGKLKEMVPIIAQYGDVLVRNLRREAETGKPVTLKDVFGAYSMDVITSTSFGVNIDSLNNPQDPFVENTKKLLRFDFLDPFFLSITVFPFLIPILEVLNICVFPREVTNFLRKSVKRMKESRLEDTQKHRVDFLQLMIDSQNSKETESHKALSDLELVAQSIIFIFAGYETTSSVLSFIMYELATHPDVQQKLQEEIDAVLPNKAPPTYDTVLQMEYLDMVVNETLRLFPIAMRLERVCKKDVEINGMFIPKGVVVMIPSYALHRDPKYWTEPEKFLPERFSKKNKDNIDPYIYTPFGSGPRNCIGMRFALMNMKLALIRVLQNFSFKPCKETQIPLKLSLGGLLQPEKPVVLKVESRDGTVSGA
Metric: IC50 (µM)
Numbers only, in µM.

C[C@@H](c1ncnc(O)c1F)[C@](O)(Cn1cncn1)c1ccc(F)cc1F [OH–VRC, hydroxyvoriconazole]    0.579

Now for another entry.
input: Endpoint output: IC50 of C[C@@H](c1nc[n+]([O-])cc1F)[C@](O)(Cn1cncn1)c1ccc(F)cc1F [NO, voriconazole N-oxide] . Value?
output: 6.96

* * *

For each of the compounds below, state its IC50.
molecular target: CYP2C9 (Homo sapiens, UniProt P11712); test: IC50 and IC50 shift on CYP2C9 marker reaction (diclofenac 4-hydroxylation) in HLM; type: in vitro ADME; parameters: tissue Corning Inc; host or cells: pooled human liver microsomes (150 donors); conditions: 30 min pre-incubation in the presence of NADPH, read-out: IC50 NADPH (+) (95% Confidence Interval)
Sequence (P11712 whole entry): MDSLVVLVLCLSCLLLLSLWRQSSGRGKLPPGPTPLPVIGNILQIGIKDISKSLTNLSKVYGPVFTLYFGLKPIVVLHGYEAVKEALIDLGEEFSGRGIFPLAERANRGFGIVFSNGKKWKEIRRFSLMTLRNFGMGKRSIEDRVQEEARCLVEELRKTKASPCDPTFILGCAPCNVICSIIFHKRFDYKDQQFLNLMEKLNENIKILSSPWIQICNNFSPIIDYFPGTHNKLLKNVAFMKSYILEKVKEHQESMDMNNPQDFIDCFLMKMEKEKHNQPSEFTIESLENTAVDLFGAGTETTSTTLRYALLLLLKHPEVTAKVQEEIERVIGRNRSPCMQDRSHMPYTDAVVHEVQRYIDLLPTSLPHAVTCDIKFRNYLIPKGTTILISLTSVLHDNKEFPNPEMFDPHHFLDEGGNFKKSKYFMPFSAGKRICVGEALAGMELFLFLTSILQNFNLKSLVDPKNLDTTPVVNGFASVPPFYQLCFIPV
Answers are plain numbers, in µM.

C[C@@H](c1ncnc(O)c1F)[C@](O)(Cn1cncn1)c1ccc(F)cc1F [OH–VRC, hydroxyvoriconazole]    3.64

Now for another entry.
input: I'm curious: which IC50 was measured for C[C@@H](c1nc[n+]([O-])cc1F)[C@](O)(Cn1cncn1)c1ccc(F)cc1F [NO, voriconazole N-oxide] tested on CYP2C9 (Homo sapiens, UniProt P11712)?
output: 14.9
